Measured EC50 values are reported for all entries that follow.
test system: FOXM1^A2 mRNA and FOXM1^BC mRNA; assay: Splicing assay (FOXM1), qPCR of isoform mRNAs; format: cell-based; conditions: FoxM1 A mRNA increase (exon excluded); 0.1-1000 nM, 24 hours; read-out: Splice EC50 (nM), FoxM1 A mRNA increase (exon excluded)

# Compound, EC50
data = [
    ("[2H]C([2H])([2H])n1ncc(-c2ccc(-c3ccc(N(C)C4CC5CCCC(C4)N5)nn3)c(O)c2)cc1=O (stereo not shown) [compound 281]", "< 10 nM"),
    ("CN(c1ccc(-c2ccc(-c3nnn[nH]3)cc2O)nn1)[C@@H]1C[C@H]2CC[C@@H](C1)N2 [compound 227]", "> 1000 nM"),
    ("Cc1ncc(-c2ccc(-c3ccc(O[C@@H]4C[C@H]5CC[C@@H](C4)N5)nn3)c(O)c2)o1 [compound 255]", "101 to 250 nM"),
    ("CN(c1ccc(-c2cc(F)c(-c3ccn(C)c(=O)c3)cc2O)nn1)[C@@H]1C[C@H]2CCC[C@@H](C1)N2 [compound 285]", "> 1000 nM"),
    ("CN(c1ccc(-c2ccc(-c3c[nH]nn3)cc2O)nn1)[C@@H]1C[C@H]2CC[C@@H](C1)N2 [compound 226]", "10 to 100 nM"),
    ("CN(c1ccc(-c2ccc(-n3ccnc3)cc2O)nn1)[C@@H]1C[C@H]2CC[C@@H](C1)N2 [compound 217]", "< 10 nM"),
    ("Cc1ccn(-c2ccc(-c3ccc(N(C)[C@@H]4C[C@H]5CC[C@@H](C4)N5)nn3)c(O)c2)n1 [compound 222]", "< 10 nM"),
]
